Tested on: TROP2 positive NCI-H292 Cells
ASSAY TEXT: Cytokine release from cancer cells (MSD)
Assay type: cell-based, human
REPORTED CONDITIONS: Homo sapiens, 120 hours, read-out: IP-10 Release EC50
pEC50: −log10 of the molar value.
So I've got a bunch of molecules here, and I need their pEC50 values.

Guide cases for pEC50, answers given:
MOLECULE | pEC50
CCn1nc(C)cc1C(=O)Nc1nc2cc(C(N)=O)cc(OC)c2n1C/C=C/Cn1c(NC(=O)c2cc(C)nn2CC)nc2cc(C(N)=O)cc(OCCCN3CCC(c4nnc5n4CCNC5)CC3)c21 | < 7.00
CCn1nc(C)cc1C(=O)Nc1nc2cc(C(N)=O)ccc2n1C/C=C/Cn1c(NC(=O)c2cc(C)nn2CC)nc2cc(C(N)=O)cc(OCCCN3CC4(CNCCO4)C3)c21 | < 7.00

Turning now to a further molecule:
Could you tell me which pEC50 is on file for CC[C@@]1(O)C(=O)OCc2c1cc1n(c2=O)Cc2c-1nc1cc(F)c(C)c3c1c2[C@@H](N)CC3 [Exatecan, reference compound] ? 9.06

* * *

Consider the following molecules; for each one, report its EC50.
TESTED TARGET: hSTING-R232 (Homo sapiens, UniProt Q86WV6, H232R)
Construct: host or cells: THP1-Dual KI-hSTING-R232 (from THP1-Dual KO-STING)
Sequence (Q86WV6 whole entry H232R): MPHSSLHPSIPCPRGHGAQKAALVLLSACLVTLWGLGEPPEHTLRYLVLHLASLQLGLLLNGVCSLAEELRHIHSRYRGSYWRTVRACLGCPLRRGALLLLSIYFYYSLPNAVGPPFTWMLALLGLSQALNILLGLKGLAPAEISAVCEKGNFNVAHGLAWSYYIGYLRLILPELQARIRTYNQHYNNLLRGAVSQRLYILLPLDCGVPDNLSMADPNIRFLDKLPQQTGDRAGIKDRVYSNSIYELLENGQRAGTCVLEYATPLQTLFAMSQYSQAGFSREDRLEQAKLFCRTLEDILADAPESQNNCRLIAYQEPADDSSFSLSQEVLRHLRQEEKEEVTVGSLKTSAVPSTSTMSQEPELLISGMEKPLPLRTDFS
ASSAY TEXT: THP1-Dual KI-hSTING-R232 reporter assay (IRF pathway, secreted Lucia luciferase)
Type: cell-based
REPORTED CONDITIONS: THP1-Dual KI-hSTING-R232 cells, 24 hours; read-out: Reporter assay EC50 (nM) THP-1-R232

MOLECULE | MEASURE | MEASURED
CCn1nc(C)cc1C(=O)Nc1nc2cc(C(N)=O)ccc2n1C/C=C/Cn1c(NC(=O)c2cc(C)nn2CC)nc2cc(C(N)=O)cc(OCCCN3CC4(C3)CN(C(=O)[C@@H](N)CC(C)C)CCO4)c21 [Compound 2] | EC50 | ≤ 50 nM

Dear colleague, could you send me EC50 for each of the items below? Thanks.
1. CCn1nc(C)cc1C(=O)Nc1nc2cc(C(N)=O)cc(OC)c2n1C/C=C/Cn1c(NC(=O)c2cc(C)nn2CC)nc2cc(C(N)=O)cc(OCCCN3CC4(C3)CN(C(=O)[C@@H](N)CC(C)C)CCO4)c21 [Compound 16]
2. CCn1nc(C)cc1C(=O)Nc1nc2cc(C(N)=O)cc(OC)c2n1C/C=C/Cn1c(NC(=O)Cc2cc(C)n(C)n2)nc2cc(C(N)=O)cc(OCCCN3CC4(CNCCO4)C3)c21 [Compound 9]

["≤ 50 nM", "> 150 nM"]

* * *

TESTED TARGET: hSTING H232 (Homo sapiens)
Sequence (Q86WV6 whole entry): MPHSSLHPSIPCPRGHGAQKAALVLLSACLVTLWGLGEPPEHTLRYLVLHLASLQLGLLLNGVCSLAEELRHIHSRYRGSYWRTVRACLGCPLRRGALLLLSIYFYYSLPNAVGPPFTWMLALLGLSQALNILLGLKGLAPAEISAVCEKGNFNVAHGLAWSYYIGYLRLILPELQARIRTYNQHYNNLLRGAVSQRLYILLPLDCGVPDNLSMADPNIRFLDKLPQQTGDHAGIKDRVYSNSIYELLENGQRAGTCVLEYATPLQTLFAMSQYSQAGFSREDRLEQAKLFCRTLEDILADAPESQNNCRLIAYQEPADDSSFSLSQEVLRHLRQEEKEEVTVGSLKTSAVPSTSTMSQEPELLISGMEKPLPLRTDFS
ASSAY TEXT: THP1-Dual KI-hSTING-H232 reporter assay (IRF pathway, secreted Lucia luciferase)
Format: cell-based
Parameters: host or cells: THP1-Dual KI-hSTING-H232 (from THP1-Dual KO-STING)
REPORTED CONDITIONS: THP1-Dual KI-hSTING-H232 cells, 24 hours; read-out: Reporter assay EC50 (nM) THP-1-H232
Protocol: The activities of the STING agonists to activate human or mouse STING pathways were evaluated in THP-1-Dual™, THP1-Dual™ KI-hSTING-R232, THP1-Dual™ KI-hSTING-H232 Cells and THP1-Dual™ KI-mSTING Cells. […] Stimulating these reporter cells with a STING agonist activates TRF pathway and induces the production of a secreted Lucia luciferase in the cell culture medium, which can be determined using QUANTI-Luc™ reagent. […]
Provide the reported EC50 of each item.

Consider the following items and state reported EC50 for each.
1. CCn1nc(C)cc1C(=O)Nc1nc2cc(C(N)=O)ccc2n1C/C=C/Cn1c(NC(=O)c2cc(C)nn2CC)nc2cc(C(N)=O)cc(OCCCN3CC4(C3)CN(C(=O)[C@@H](N)CC(C)C)CCO4)c21
2. CCn1nc(C)cc1C(=O)Nc1nc2cc(C(N)=O)cnc2n1C/C=C/Cn1c(NC(=O)c2cc(C)nn2CC)nc2cc(C(N)=O)cc(OCCCN3CCC(c4nnc5n4CCNC5)CC3)c21
3. CCn1nc(C)cc1C(=O)Nc1nc2cc(C(N)=O)cc(OC)c2n1C/C=C/Cn1c(NC(=O)Cc2cnc(C)o2)nc2cc(C(N)=O)cc(OCCCN3CC4(CNCCO4)C3)c21

≤ 50 nM
50 to 150 nM
> 150 nM

# batch size: 7; output EC50 per entry
1. CCn1nc(C)cc1C(=O)Nc1nc2cc(C(N)=O)cc(OC)c2n1C/C=C/Cn1c(NC(=O)c2cc(C)nn2C)nc2cc(C(N)=O)cc(OCCCN3CC4(CNCCO4)C3)c21
2. CCc1nc(C)oc1C(=O)Nc1nc2cc(C(N)=O)cc(OCCCN3CC4(C3)CN(C(=O)CNC)CCO4)c2n1C/C=C/Cn1c(NC(=O)c2cc(C)nn2CC)nc2cc(C(N)=O)cc(OC)c21
3. CCn1nc(C)cc1C(=O)Nc1nc2cc(C(N)=O)cc(OC)c2n1C/C=C/Cn1c(NC(=O)c2cc(C)nn2CC)nc2cc(C(N)=O)cc(OCCCN3CC4(C3)CN(C(=O)CCCCCON)CCO4)c21
4. CCn1nc(C)cc1C(=O)Nc1nc2cc(C(N)=O)ccc2n1C/C=C/Cn1c(NC(=O)c2cc(C)nn2CC)nc2cc(C(N)=O)cc(OCCCN3CC4(C3)CN(C(=O)CON=C(C)c3ccc(C[C@H](N)C(=O)O)cc3)CCO4)c21 (racemic)
5. CCn1nc(C)cc1C(=O)Nc1nc2cc(C(N)=O)cc(OC)c2n1C/C=C/Cn1c(NC(=O)c2oc(C)nc2C)nc2cc(C(N)=O)cc(OCCCN3CC4(CNCCO4)C3)c21
6. CCn1nc(C)cc1C(=O)Nc1nc2cc(C(N)=O)cc(OC)c2n1C/C=C/Cn1c(NC(=O)c2cc(C)nn2CC)nc2cc(C(N)=O)cc(OCCCN3CC4(CNCCO4)C3)c21
7. CCn1nc(C)cc1C(=O)Nc1nc2cc(C(N)=O)cc(OC)c2n1C/C=C/Cn1c(N2CCn3nc(C)cc3C2=O)nc2cc(C(N)=O)cc(OCCCN3CC4(CNCCO4)C3)c21

1: ≤ 50 nM; 2: > 150 nM; 3: ≤ 50 nM; 4: > 150 nM; 5: ≤ 50 nM; 6: ≤ 50 nM; 7: > 150 nM
